The reported measurements were obtained from the RNAGym collection of RNA variant scans (doi:10.7554/elife.80360).

B1: CPEB3 Ribozyme (parent)
chain: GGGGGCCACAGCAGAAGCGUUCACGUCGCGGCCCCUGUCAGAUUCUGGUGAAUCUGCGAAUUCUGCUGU

# Variants of: B1
# experimentalDetails: self-cleavage, relative activity (ratio to wild type); higher = more cleavage; co-transcriptional
Note that class boundaries on self-cleavage are L: < 0.2; M: ≥ 0.2 and < 0.7; H: ≥ 0.7

Which of the defined bands does the recorded self-cleavage of G2A C18U sit within?
L

Which of the defined bands does the recorded self-cleavage of C7G C34U sit within?
M

Which of the defined bands does the recorded self-cleavage of U53A U67A sit within?
H

Which of the defined bands does the recorded self-cleavage of C63G C66G sit within?
M

Which of the defined bands does the recorded self-cleavage of C35U G68C sit within?
H

Which of the defined bands does the recorded self-cleavage of C12A C57U sit within?
M

Which of the defined bands does the recorded self-cleavage of A8G C18U sit within?
M

Which of the defined bands does the recorded self-cleavage of U55G G58A sit within?
M

Which of the defined bands does the recorded self-cleavage of G3A A59G sit within?
M

Which of the defined bands does the recorded self-cleavage of C34G G56U sit within?
M

Which of the defined bands does the recorded self-cleavage of A23U U61A sit within?
H

Which of the defined bands does the recorded self-cleavage of U44G A60G sit within?
H

Which of the defined bands does the recorded self-cleavage of A23C C57A sit within?
M

Which of the defined bands does the recorded self-cleavage of U53C G56A sit within?
M

Which of the defined bands does the recorded self-cleavage of U49C U67G sit within?
H

Which of the defined bands does the recorded self-cleavage of C45A U55A sit within?
M

Which of the defined bands does the recorded self-cleavage of G17U G31U sit within?
L

Which of the defined bands does the recorded self-cleavage of U55C U69G sit within?
H

Which of the defined bands does the recorded self-cleavage of A52U C57G sit within?
M

Which of the defined bands does the recorded self-cleavage of G17C C34U sit within?
L

Which of the defined bands does the recorded self-cleavage of G5C U64G sit within?
L

Which of the defined bands does the recorded self-cleavage of C6A G37U sit within?
L

Which of the defined bands does the recorded self-cleavage of G47C C54G sit within?
H

Which of the defined bands does the recorded self-cleavage of G2U C6U sit within?
L

Which of the defined bands does the recorded self-cleavage of G25C G47C sit within?
L

Which of the defined bands does the recorded self-cleavage of G2C A23C sit within?
L

Which of the defined bands does the recorded self-cleavage of A15U A52C sit within?
H

Which of the defined bands does the recorded self-cleavage of G4C C29A sit within?
L

Which of the defined bands does the recorded self-cleavage of G1U A60C sit within?
L

Which of the defined bands does the recorded self-cleavage of C22U U55C sit within?
L

Which of the defined bands does the recorded self-cleavage of U44C U69C sit within?
H

Which of the defined bands does the recorded self-cleavage of G31A G50A sit within?
H

Which of the defined bands does the recorded self-cleavage of A23G C35A sit within?
M

Which of the defined bands does the recorded self-cleavage of G1U C45U sit within?
L

Which of the defined bands does the recorded self-cleavage of C6U G25C sit within?
L

Which of the defined bands does the recorded self-cleavage of G3A C22A sit within?
L

Which of the defined bands does the recorded self-cleavage of G2U G19C sit within?
L

Which of the defined bands does the recorded self-cleavage of C29G U36A sit within?
L

Which of the defined bands does the recorded self-cleavage of C39G A42U sit within?
H

Which of the defined bands does the recorded self-cleavage of C6U A23U sit within?
H

Which of the defined bands does the recorded self-cleavage of U26A G50C sit within?
H

Which of the defined bands does the recorded self-cleavage of C6G G48U sit within?
M

Which of the defined bands does the recorded self-cleavage of G14U G25A sit within?
L

Which of the defined bands does the recorded self-cleavage of A10U U44C sit within?
H

Which of the defined bands does the recorded self-cleavage of G1A U44C sit within?
L

Which of the defined bands does the recorded self-cleavage of U43G U46G sit within?
H

Which of the defined bands does the recorded self-cleavage of G11A U69G sit within?
H

Which of the defined bands does the recorded self-cleavage of C7G G56A sit within?
M

Which of the defined bands does the recorded self-cleavage of A13G A59C sit within?
M

Which of the defined bands does the recorded self-cleavage of U44C U67G sit within?
H

Which of the defined bands does the recorded self-cleavage of G3U U62G sit within?
L

Which of the defined bands does the recorded self-cleavage of G2A G58U sit within?
M

Which of the defined bands does the recorded self-cleavage of C12U G68U sit within?
H

Which of the defined bands does the recorded self-cleavage of A15C U49G sit within?
H

Which of the defined bands does the recorded self-cleavage of C24U C54A sit within?
M
